Reference source for all entries: patent US10907134B2

Test: Substrate specificities of KAZ mutants (ZZ-fused, crude enzyme), f-CTZ
Assay type: biochemical
Details: 1 μg substrate, maximum intensity of luminescence
measured-property: Relative Luminescence Activity f-CTZ Imax
Lab note: write the figure by itself, no unit.

| molecule | value-observed |
| --- | --- |
| KAZ-V44I: KAZ with single amino acid substitution V44I, SEQ ID NO: 4 (protein) FTLADFVGDWQQTAGYNQDQVLEQGGLSSLFQALGVSVTPIQKIVLSGENGLKADIHVIIPYEGLSGFQMGLIEMIFKVVYPVDDHHFKIILHYGTLVIDGVTPNMIDYFGRPYPGIAVFDGKQITVTGTLWNGNKIYDERLINPDGSLLFRVTINGVTGWRLCENILA | 2.1 |
| KAZ-A54I: KAZ with single amino acid substitution A54I, SEQ ID NO: 6 (protein) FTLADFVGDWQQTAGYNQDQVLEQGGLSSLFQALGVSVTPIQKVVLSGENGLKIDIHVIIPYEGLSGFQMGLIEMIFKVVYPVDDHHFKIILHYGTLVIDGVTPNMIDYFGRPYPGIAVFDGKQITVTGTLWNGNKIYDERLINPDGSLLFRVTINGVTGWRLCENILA | 8.2 |
| KAZ-Y138I: KAZ with single amino acid substitution Y138I, SEQ ID NO: 8 (protein) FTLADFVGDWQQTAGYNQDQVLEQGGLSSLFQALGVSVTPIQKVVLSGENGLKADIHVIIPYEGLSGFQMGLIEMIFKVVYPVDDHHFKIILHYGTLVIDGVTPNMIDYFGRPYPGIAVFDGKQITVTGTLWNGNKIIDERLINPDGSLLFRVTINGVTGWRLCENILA | 2.4 |
| KAZ-V44I-A54I-Y138I: KAZ mutant with three amino acid substitutions V44I, A54I and Y138I, SEQ ID NO: 16 (protein) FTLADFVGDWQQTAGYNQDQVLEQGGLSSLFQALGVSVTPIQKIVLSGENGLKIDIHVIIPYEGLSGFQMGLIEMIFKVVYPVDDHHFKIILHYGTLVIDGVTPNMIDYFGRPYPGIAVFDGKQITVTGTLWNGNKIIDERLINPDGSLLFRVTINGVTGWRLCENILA | 43.8 |
| KAZ-A54I-Y138I: KAZ mutant with two amino acid substitutions A54I and Y138I, SEQ ID NO: 14 (protein) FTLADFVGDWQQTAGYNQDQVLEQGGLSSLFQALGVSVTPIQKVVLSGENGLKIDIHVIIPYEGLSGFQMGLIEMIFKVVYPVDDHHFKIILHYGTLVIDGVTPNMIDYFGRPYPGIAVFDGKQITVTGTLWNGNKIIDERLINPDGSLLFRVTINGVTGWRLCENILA | 19.7 |
| KAZ-V44I-Y138I: KAZ mutant with two amino acid substitutions V44I and Y138I, SEQ ID NO: 12 (protein) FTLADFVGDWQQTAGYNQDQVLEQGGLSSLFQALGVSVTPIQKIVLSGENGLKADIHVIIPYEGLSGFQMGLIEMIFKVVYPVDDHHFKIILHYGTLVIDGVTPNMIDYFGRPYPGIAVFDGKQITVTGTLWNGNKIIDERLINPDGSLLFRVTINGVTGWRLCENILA | 13.3 |
| KAZ: wild 19 kDa catalytic protein of Oplophorus luciferase (19kOLase), amino acid sequence SEQ ID NO: 2 (protein, listed as Oplophorus gracilirostris) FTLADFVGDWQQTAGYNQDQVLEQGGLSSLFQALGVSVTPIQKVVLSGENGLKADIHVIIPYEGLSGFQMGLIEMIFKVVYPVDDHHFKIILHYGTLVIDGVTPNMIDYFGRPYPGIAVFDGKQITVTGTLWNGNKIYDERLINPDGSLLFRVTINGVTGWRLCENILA | 0.9 |

Param item = KAZ-V44I-A54I: KAZ mutant with two amino acid substitutions V44I and A54I, SEQ ID NO: 10 (protein) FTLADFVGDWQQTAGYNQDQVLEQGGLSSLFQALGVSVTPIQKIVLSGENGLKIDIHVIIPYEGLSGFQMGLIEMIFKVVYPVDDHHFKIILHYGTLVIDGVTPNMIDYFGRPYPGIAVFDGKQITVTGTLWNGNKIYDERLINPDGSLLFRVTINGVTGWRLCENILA ; retrieve measured Relative Luminescence Activity f-CTZ Imax.
11.3
